Numbers sourced from the kinase profiling compilation of Christmann-Franck et al. (2016).

# Target Desc: MAP3K14 (human) (UniProt Q99558)
# Sequence (Q99558 whole entry, looked up): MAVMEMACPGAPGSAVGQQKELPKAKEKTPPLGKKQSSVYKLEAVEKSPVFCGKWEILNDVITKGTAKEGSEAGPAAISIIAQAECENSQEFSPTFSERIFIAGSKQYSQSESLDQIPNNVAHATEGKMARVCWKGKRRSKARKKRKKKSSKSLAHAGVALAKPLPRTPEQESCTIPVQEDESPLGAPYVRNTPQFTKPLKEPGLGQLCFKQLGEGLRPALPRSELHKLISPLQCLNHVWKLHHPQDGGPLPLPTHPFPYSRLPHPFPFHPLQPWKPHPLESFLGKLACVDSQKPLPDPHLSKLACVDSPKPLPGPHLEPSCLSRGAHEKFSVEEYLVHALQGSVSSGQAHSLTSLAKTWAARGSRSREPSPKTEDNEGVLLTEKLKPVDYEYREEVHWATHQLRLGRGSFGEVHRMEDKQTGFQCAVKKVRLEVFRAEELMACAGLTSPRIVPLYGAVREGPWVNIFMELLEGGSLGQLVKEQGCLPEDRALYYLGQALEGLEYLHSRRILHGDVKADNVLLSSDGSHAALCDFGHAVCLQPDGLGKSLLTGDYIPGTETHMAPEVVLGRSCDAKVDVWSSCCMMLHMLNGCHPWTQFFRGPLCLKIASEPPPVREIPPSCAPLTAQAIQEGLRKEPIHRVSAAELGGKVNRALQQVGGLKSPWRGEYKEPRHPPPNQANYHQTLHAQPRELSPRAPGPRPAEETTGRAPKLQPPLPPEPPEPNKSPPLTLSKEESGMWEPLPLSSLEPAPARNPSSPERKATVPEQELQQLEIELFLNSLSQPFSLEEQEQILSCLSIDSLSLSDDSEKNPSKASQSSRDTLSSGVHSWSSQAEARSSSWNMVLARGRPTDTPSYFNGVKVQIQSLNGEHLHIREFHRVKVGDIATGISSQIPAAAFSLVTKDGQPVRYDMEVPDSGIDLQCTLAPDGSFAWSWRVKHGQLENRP
# Assay Explanation: radiometric filter-binding kinase assay, Kinase HotSpot
# Measurement Parameters: compound 0.5 µM; ATP 10 µM
In this section, each of the compounds is paired with its reported residual activity.
Quick note: give the figure in %, leave out the unit.

Recorded results for 5 compounds are shown here.
{"columns": ["Cpd Smiles", "Readout Name", "Reading Unit", "Assay Result"],
 "data": [
  ["CCOC(=O)c1c(C)[nH]c(/C=C2\\C(=O)Nc3ccccc32)c1C", "residual activity", "%", 118],
  ["O=S(=O)(c1cccc2cnccc12)N1CCCNCC1", "residual activity", "%", 97.7],
  ["CCC(=O)Nc1ccc2ncnc(Nc3cccc(Br)c3)c2c1", "residual activity", "%", 116],
  ["CNC(=O)c1cc(Oc2ccc(NC(=O)Nc3ccc(Cl)c(C(F)(F)F)c3)cc2)ccn1", "residual activity", "%", 96.4],
  ["Nc1ccc2ncnc(NCCc3ccc(Oc4ccccc4)cc3)c2c1", "residual activity", "%", 109]
]}

For MAP3K14 (human) (UniProt Q99558), give the measured residual activity of the entry `Cc1[nH]c(/C=C2\C(=O)Nc3ccc(S(=O)(=O)N(C)c4cccc(Cl)c4)cc32)c(C)c1C(=O)N1CCN(C)CC1`
109

For MAP3K14 (human) (UniProt Q99558), give the measured residual activity of the entry `O=C1NC(=O)C(c2cn(CCCn3ccnc3)c3ccccc23)=C1Nc1ccccc1`
96.1

For MAP3K14 (human) (UniProt Q99558), give the measured residual activity of the entry `O=C1Nc2ccc(Cl)cc2/C1=C/c1cc(Cl)c(O)c(Cl)c1`
111
